# Study target: Bat-RaTG13 RBD (Bat coronavirus RaTG13, UniProt A0ABF7PLN6)
# Test method notes: BLI
Quantity name: binding result

Binder: BD56-597 (antibody, V domains shown) VH: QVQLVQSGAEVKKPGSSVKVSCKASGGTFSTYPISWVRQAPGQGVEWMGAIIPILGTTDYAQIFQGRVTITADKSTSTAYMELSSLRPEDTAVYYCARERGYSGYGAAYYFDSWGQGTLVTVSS VL: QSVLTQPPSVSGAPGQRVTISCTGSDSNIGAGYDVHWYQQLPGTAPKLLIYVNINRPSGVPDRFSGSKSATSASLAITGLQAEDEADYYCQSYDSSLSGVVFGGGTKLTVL
Result: binds
--
Binder: ZL525 (antibody, V domains shown) V domain 1: QVQLVQSGAEVKKPGSSMKVSCQASGGTFSSHPISWIRQAPGQGLEWMGRIIPIAGMTDYGQKFQGRITITADTSTSTSYVELRGLRSQDTAFYYCAKDVGYSDYGSAYYFHTWGQGTLITVSS V domain 2: QSVLTQPPSVSGAPGQRVTISCTGSNSNIGAGYDVHWYQQLPGTAPKLLIYRNNKRPSGVPDRFSGSKSDTSASLAITGLQAEDEAHYYCQSFDSSLGGSLFGGGTKLAVL
Result: binds
--
Binder: BD56-104 (antibody, V domains shown) VH: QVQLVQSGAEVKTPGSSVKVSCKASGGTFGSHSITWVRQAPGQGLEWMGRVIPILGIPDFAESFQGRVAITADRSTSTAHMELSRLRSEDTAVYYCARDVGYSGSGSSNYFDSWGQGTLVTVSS VL: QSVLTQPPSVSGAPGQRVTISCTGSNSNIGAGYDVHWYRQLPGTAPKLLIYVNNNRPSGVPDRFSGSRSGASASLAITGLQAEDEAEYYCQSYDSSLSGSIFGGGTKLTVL
Result: binds
